Test system: Fer (mouse);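 note: 11-residue human phosphosite peptides and single-mutation variants displayed on the E. coli surface, counted by deep sequencing, each peptide's frequency after selection divided by its frequency in the unselected input library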;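 note: frequency after pTyr selection over input frequency; kinase dosed for 20-30% of maximal phosphorylation in three min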
test_details: phosphorylation enrichment, bacterial display (enrichment ratio); higher = better substrate or ligand; peptides without Tyr show the background
For each record, write down the corresponding phosphorylation enrichment.
One number for each entry.

EDEGLYMVRVP [MYOM3_Y343]: 1.89
EPSVDYCVVKI [CAD_Y735]: 1.26
QAIDEYEKWLE [MAP9_Y603_N601D]: 0.581
GHNDVYISEHV [GRIN2A_Y1423]: 0.317
YGTAQYCCRMG [LRRK2_Y2023_I2020T]: 0.603

State recorded phosphorylation enrichment for all listed sequences.
1. LTDLRYKVSGP
2. SVVVLYEPPEV [TP53_Y220_P219L]
3. IIEDPYFGNDS [ACP1_Y132_YF]
4. ITVCDYTNPCT [MYD88_Y276]
5. KHTLSYVDVGT [SDHA_Y629]
6. KSMFVYCTPNK [ATP2A2_Y497_S495F]

0.588
5.4
0.711
0.395
0.392
0.565

Report phosphorylation enrichment for each item below.
1. TGDFGYRAPGY [TNS2_Y668]
2. MQMEEYRGRVE [BTNL2_Y91_W94R]
3. EVESPYEVRDY [GIGYF2_Y1168_H1171R]

0.332
0.424
5.62

Return reported phosphorylation enrichment values for all items listed beneath this line.
1. ALTRSYVREKV [CYP2C8_Y243_I244V]
2. HSKGIYFVQLE [MGAT4B_Y262_Q257H_YF]
3. RMSSSYPTGLA [ADM_Y52]
4. VFGVSYDEFRF [CFTR_Y512_I507V_YF]

1. 0.398
2. 0.711
3. 0.502
4. 1.98

Hello, I would appreciate it if you could give phosphorylation enrichment for each entry below.
1. EVKAQNEDIAQ [KRT1_Y358_Y358N]
2. WDSSGYWTPEE [PAPPA2_Y908_C903W]
3. MCDSHYLESRF [CLK1_Y56_S61F]

1. 0.411
2. 0.569
3. 0.44

Please give phosphorylation enrichment for each item listed below.
1. RWHEGYRQTPR [CD44_Y412_K417R]
2. MPQNEYIELHR [NSA2_Y6]
3. GITTGYLVLKE [DNMT3B_Y588_A585T]
4. QLHREYCLSPR [HJURP_Y445]
5. SMGHRYIEVFK [HNRNPF_Y82]
6. RNGDRYFKEIV [DCX_Y64_G67E]

0.613
0.325
0.542
0.765
0.438
0.472

Provide each entry's phosphorylation enrichment from the list below.
1. LLSVAYKNVVG [YWHAG_Y49]
2. FPIDHYLGKEM [G6PD_Y202_R198P_YF]
3. KSLFHYRQFSA [CPS1_Y1491_YF]
4. LQIPMYEVQWK [KIT_Y553_K550I]
5. DRLASYLDKMR [KRT17_Y98_V102M]
6. WAFNLYDINKY [KCNIP3_Y174_D179Y]
7. MALDIYRASYY [ALK_Y1278_R1275L]

0.551
0.469
0.534
2.54
0.436
3.29
0.434

Find the recorded phosphorylation enrichment belonging to KGEDFYCVTCP [FHL1_Y149_H154P] and report it.
2.65

Source listed as the supplement of paper PMC10065799.
